- Study Target: Torsin-1A (Homo sapiens) (UniProt O14656)
- Sequence (O14656 whole entry, looked up): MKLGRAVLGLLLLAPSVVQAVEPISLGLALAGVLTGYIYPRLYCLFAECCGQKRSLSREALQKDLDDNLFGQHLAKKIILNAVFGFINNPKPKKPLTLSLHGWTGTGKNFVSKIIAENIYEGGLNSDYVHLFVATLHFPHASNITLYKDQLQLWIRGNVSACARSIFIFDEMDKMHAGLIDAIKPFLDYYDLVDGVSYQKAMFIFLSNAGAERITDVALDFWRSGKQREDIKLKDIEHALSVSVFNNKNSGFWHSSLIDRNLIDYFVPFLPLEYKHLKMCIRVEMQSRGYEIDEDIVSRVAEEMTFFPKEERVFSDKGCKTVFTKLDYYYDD
- Assay Details: small-molecule binders of mutant TOR1A in lysate, primary screen, cell lysate, small-molecule microarray, COS7 lysate, 635/667 nm fluorescence (AID 1150);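 note: score pools 667 nm emission and signal to noise measuring lysate protein binding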
- Measurement Conditions: COS7 hTOR1A mutant lysate, 635 nm fluorescence, higher = more signal
Record MET whenever composite z-score is at 0.2 or higher; record NOT MET when lower.

Record excerpt, results attached:
Compound	Label Class
CCOC(=O)C[C@H]1[C@H](OC(=O)c2ccc(C(=O)c3ccccc3)cc2)[C@@H](NC(=O)CC(C)C)c2cc(OCCCO)ccc2N1C(=O)Cc1ccc(OC)cc1	MET
CC(C)CNC(=O)[C@@H]1c2ccccc2C(=O)N(C2CCCCC2)[C@H]1c1ccc(CO)cc1	NOT MET
[N-]=[N+]=NCc1ccccc1[C@@H]1OC(c2ccc(OCCCO)cc2)=N[C@]1(Cc1ccccc1)C(=O)NCCN1CCOCC1	MET
Cc1ccc(S[C@]2(C(=O)NC(C)C)CC(=O)N(C(C)C)[C@@H]2c2ccc(CO)cc2I)cc1	MET
NCCCCCNC(=O)[C@@H]1C[C@@H]2C(=O)N3CCC[C@H]3C(=O)N2[C@@H]1c1ccc(O)cc1	MET

-- ask Identify whether the reported composite z-score of the following compound is 0.2 or greater: C=CCN1C(=O)[C@]2(O[C@H](CCO)[C@@H]([Si](C)(C)c3ccc(OC)cc3)[C@@H]2C)c2cc(NC(=O)c3ccc(OC)cc3)ccc21
-- reply MET

-- ask Hi team, for CC(=O)n1cc(C(O)C2C=CC3C(=O)N(c4ccccc4)C(=O)C3N2Nc2ccc(C(C)C)cc2)c2ccccc21 (stereo not drawn) , is the recorded composite z-score at or above 0.2?
-- reply MET

-- ask Threshold query (composite z-score >= 0.2) on CN(C)CCCCCCNC(=O)[C@@H]1C[C@@H]2C(=O)N[C@@H](CCCCN)C(=O)N2[C@@H]1c1ccc(O)cc1
-- reply MET

-- ask Determine whether measured composite z-score meets or exceeds 0.2 for CCCNC(=O)[C@@]1(Sc2ccc(C)cc2)CC(=O)N(C(C)C)[C@@H]1c1ccc(CO)cc1I
-- reply NOT MET

-- ask State whether the measured composite z-score reaches 0.2, counting equality as reaching it, for C=CCC(OC(C)=O)[C@@H]1[C@@H](N(Cc2ccc(-c3cccc(C(F)(F)F)c3)o2)C(=O)Cc2ccc(OC)cc2)c2cc(OCCCO)ccc2N1C(=O)Cc1ccc2ccccc2c1 (stereo partly drawn)
-- reply NOT MET
